- System: Mycobacterium tuberculosis
- TEST: Anti-mycobacterial activity against Mycobacterium tuberculosis H37Rv incubated for 5 days by alamar blue assay
- Assay type: functional
- TEST_CONDITIONS: 120 h, time 5 day
Lab note - cut at 10 µg/mL for MIC: yes (1) if strictly below, no (0) if not.

{"SAMPLE_SMILES": "Nc1ccc(C(=O)O)c(O)c1", "DISCRETE_LABEL": "no (0)"}
{"SAMPLE_SMILES": "COc1ccc(-c2cn3cc(C4=CCN(C(=O)C5CC5)CC4)ccc3n2)cc1OC", "DISCRETE_LABEL": "no (0)"}
{"SAMPLE_SMILES": "COc1ccc(-c2cn3cc(C4=CCN(S(=O)(=O)c5ccc(Br)cc5)CC4)ccc3n2)cc1OC", "DISCRETE_LABEL": "yes (1)"}
{"SAMPLE_SMILES": "COc1ccc(-c2cn3cc(C4=CCN(S(=O)(=O)C5CCCCC5)CC4)ccc3n2)cc1OC", "DISCRETE_LABEL": "no (0)"}
{"SAMPLE_SMILES": "COc1ccc(-c2cn3cc(C4=CCN(S(=O)(=O)c5ccc(Br)s5)CC4)ccc3n2)cc1OC", "DISCRETE_LABEL": "yes (1)"}
{"SAMPLE_SMILES": "CC[C@@H](CO)NCCN[C@@H](CC)CO", "DISCRETE_LABEL": "yes (1)"}
{"SAMPLE_SMILES": "COc1ccc(-c2cn3cc(C4=CCN(S(=O)(=O)c5ccc([N+](=O)[O-])cc5)CC4)ccc3n2)cc1OC", "DISCRETE_LABEL": "yes (1)"}
{"SAMPLE_SMILES": "COc1ccc(-c2cn3cc(C4=CCN(S(=O)(=O)c5ccc(C(C)=O)cc5)CC4)ccc3n2)cc1OC", "DISCRETE_LABEL": "yes (1)"}
{"SAMPLE_SMILES": "CCCS(=O)(=O)N1CC=C(c2ccc3nc(-c4ccc(OC)c(OC)c4)cn3c2)CC1", "DISCRETE_LABEL": "no (0)"}

* * *

- System: Mycobacterium tuberculosis
- TEST: Anti-mycobacterial activity against Mycobacterium tuberculosis H37Rv incubated for 5 days by alamar blue assay
- Assay type: functional
- TEST_CONDITIONS: 120 h, time 5 day
PARAMETER_MEASURED: MIC (µg/mL)

{"SAMPLE_SMILES": "COc1ccc(-c2cn3cc(C4=CCN(S(=O)(=O)c5ccc(C(C)(C)C)cc5)CC4)ccc3n2)cc1OC", "TARGET": "Mycobacterium tuberculosis", "PARAMETER_MEASURED": "MIC", "READOUT_UNITS": "µg/mL", "READOUT_RELATION": "=", "RECORDED_RESULT": 6.25}
{"SAMPLE_SMILES": "COc1ccc(-c2cn3cc(C4=CCN(C(=O)c5cccc(C(F)(F)F)c5)CC4)ccc3n2)cc1OC", "TARGET": "Mycobacterium tuberculosis", "PARAMETER_MEASURED": "MIC", "READOUT_UNITS": "µg/mL", "READOUT_RELATION": "=", "RECORDED_RESULT": 12.5}
{"SAMPLE_SMILES": "COc1ccc(-c2cn3cc(C4=CCN(C(=O)COCc5ccccc5)CC4)ccc3n2)cc1OC", "TARGET": "Mycobacterium tuberculosis", "PARAMETER_MEASURED": "MIC", "READOUT_UNITS": "µg/mL", "READOUT_RELATION": "=", "RECORDED_RESULT": 50}
{"SAMPLE_SMILES": "COc1ccc(-c2cn3cc(C4=CCN(S(=O)(=O)c5ccc(C(F)(F)F)cc5)CC4)ccc3n2)cc1OC", "TARGET": "Mycobacterium tuberculosis", "PARAMETER_MEASURED": "MIC", "READOUT_UNITS": "µg/mL", "READOUT_RELATION": "=", "RECORDED_RESULT": 6.25}
{"SAMPLE_SMILES": "COc1ccc(-c2cn3cc(C4=CCN(S(=O)(=O)c5ccc(F)cc5)CC4)ccc3n2)cc1OC", "TARGET": "Mycobacterium tuberculosis", "PARAMETER_MEASURED": "MIC", "READOUT_UNITS": "µg/mL", "READOUT_RELATION": "=", "RECORDED_RESULT": 6.25}
{"SAMPLE_SMILES": "COc1ccc(-c2cn3cc(C4=CCN(C(=O)c5ccccc5F)CC4)ccc3n2)cc1OC", "TARGET": "Mycobacterium tuberculosis", "PARAMETER_MEASURED": "MIC", "READOUT_UNITS": "µg/mL", "READOUT_RELATION": "=", "RECORDED_RESULT": 6.25}
{"SAMPLE_SMILES": "COc1ccc(-c2cn3cc(C4=CCN(C(=O)C5CCCCC5)CC4)ccc3n2)cc1OC", "TARGET": "Mycobacterium tuberculosis", "PARAMETER_MEASURED": "MIC", "READOUT_UNITS": "µg/mL", "READOUT_RELATION": "=", "RECORDED_RESULT": 50}
{"SAMPLE_SMILES": "COc1ccc(-c2cn3cc(C4=CCN(C(=O)c5ccc(F)cc5)CC4)ccc3n2)cc1OC", "TARGET": "Mycobacterium tuberculosis", "PARAMETER_MEASURED": "MIC", "READOUT_UNITS": "µg/mL", "READOUT_RELATION": "=", "RECORDED_RESULT": 25}
{"SAMPLE_SMILES": "COc1ccc(-c2cn3cc(C4=CCN(C(C)=O)CC4)ccc3n2)cc1OC", "TARGET": "Mycobacterium tuberculosis", "PARAMETER_MEASURED": "MIC", "READOUT_UNITS": "µg/mL", "READOUT_RELATION": ">", "RECORDED_RESULT": 100}
{"SAMPLE_SMILES": "COc1ccc(-c2cn3cc(C4=CCN(C(=O)c5cocn5)CC4)ccc3n2)cc1OC", "TARGET": "Mycobacterium tuberculosis", "PARAMETER_MEASURED": "MIC", "READOUT_UNITS": "µg/mL", "READOUT_RELATION": "=", "RECORDED_RESULT": 50}
{"SAMPLE_SMILES": "COc1ccc(-c2cn3cc(C4=CCN(S(=O)(=O)c5ccc(Cl)cc5)CC4)ccc3n2)cc1OC", "TARGET": "Mycobacterium tuberculosis", "PARAMETER_MEASURED": "MIC", "READOUT_UNITS": "µg/mL", "READOUT_RELATION": "=", "RECORDED_RESULT": 6.25}
{"SAMPLE_SMILES": "COc1ccc(-c2cn3cc(C4=CCN(S(=O)(=O)C5CCCC5)CC4)ccc3n2)cc1OC", "TARGET": "Mycobacterium tuberculosis", "PARAMETER_MEASURED": "MIC", "READOUT_UNITS": "µg/mL", "READOUT_RELATION": "=", "RECORDED_RESULT": 25}
{"SAMPLE_SMILES": "COc1ccc(-c2cn3cc(C4=CCN(C(=O)c5ccco5)CC4)ccc3n2)cc1OC", "TARGET": "Mycobacterium tuberculosis", "PARAMETER_MEASURED": "MIC", "READOUT_UNITS": "µg/mL", "READOUT_RELATION": "=", "RECORDED_RESULT": 50}
{"SAMPLE_SMILES": "COc1ccc(-c2cn3cc(C4=CCN(S(=O)(=O)C5CC5)CC4)ccc3n2)cc1OC", "TARGET": "Mycobacterium tuberculosis", "PARAMETER_MEASURED": "MIC", "READOUT_UNITS": "µg/mL", "READOUT_RELATION": "=", "RECORDED_RESULT": 12.5}
{"SAMPLE_SMILES": "COc1ccc(-c2cn3cc(C4=CCN(S(=O)(=O)c5ccccc5)CC4)ccc3n2)cc1OC", "TARGET": "Mycobacterium tuberculosis", "PARAMETER_MEASURED": "MIC", "READOUT_UNITS": "µg/mL", "READOUT_RELATION": "=", "RECORDED_RESULT": 25}
{"SAMPLE_SMILES": "CCS(=O)(=O)N1CC=C(c2ccc3nc(-c4ccc(OC)c(OC)c4)cn3c2)CC1", "TARGET": "Mycobacterium tuberculosis", "PARAMETER_MEASURED": "MIC", "READOUT_UNITS": "µg/mL", "READOUT_RELATION": "=", "RECORDED_RESULT": 12.5}
{"SAMPLE_SMILES": "COc1ccc(-c2cn3cc(C4=CCN(S(=O)(=O)c5ccc(Cl)s5)CC4)ccc3n2)cc1OC", "TARGET": "Mycobacterium tuberculosis", "PARAMETER_MEASURED": "MIC", "READOUT_UNITS": "µg/mL", "READOUT_RELATION": "=", "RECORDED_RESULT": 6.25}
